# assay.target: SARS-CoV-2 Mac1 (Severe acute respiratory syndrome coronavirus 2, UniProt P0DTD1)
# procedure.details: biochemical
# assay.context: read-out: %inhibition
Where a name gives a salt, the structure may show the parent alone.
Entries and their measured inhibition at 100 µM follow.

- compound: "NCCCC(O)(P(=O)(O)O)P(=O)(O)O [Alendronate sodium trihydrate]"
  inhibition at 100 µM, %: 1.69
- compound: "O=C(NS(=O)(=O)c1ccc(Br)s1)c1ccc(Cl)cc1Cl"
  inhibition at 100 µM, %: 0
- compound: "COc1ccc(C(Cl)=C(c2ccc(OC)cc2)c2ccc(OC)cc2)cc1"
  inhibition at 100 µM, %: 0
- compound: "OC1C[C@H]2CC[C@@H](C1)N2 (some centres unmarked) [Nortropine Hydrochloride]"
  inhibition at 100 µM, %: 6.37
- compound: "O=C(O[C@H]1C[C@H]2CC[C@@H](C1)[N+]21CCCC1)C(O)(c1ccccc1)c1ccccc1 [Trospium chloride]"
  inhibition at 100 µM, %: 14.5
- compound: "COc1ccc2cc(CCC(C)=O)ccc2c1"
  inhibition at 100 µM, %: 0
- compound: "NS(=O)(=O)c1cc2c(cc1Cl)NC(C(Cl)Cl)NS2(=O)=O (centres unmarked) [Trichlormethiazide]"
  inhibition at 100 µM, %: 0
- compound: "CCC(=O)O[C@]1(C(=O)CCl)[C@@H](C)C[C@H]2[C@@H]3C[C@H](F)C4=CC(=O)C=C[C@]4(C)[C@@]3(F)[C@@H](O)C[C@@]21C [Halobetasol Propionate]"
  inhibition at 100 µM, %: 24.3
- compound: "C=C1CC[C@H](O)C/C1=C/C=C1\\CCC[C@]2(C)[C@@H]([C@H](C)CCCC(C)(C)O)CC[C@@H]12"
  inhibition at 100 µM, %: 0
- compound: "CCOc1ccccc1OCCN[C@H](C)Cc1ccc(OC)c(S(N)(=O)=O)c1 [Tamsulosin hydrochloride]"
  inhibition at 100 µM, %: 0
- compound: "O=c1[nH]cnc2c1ncn2[C@@H]1O[C@H](CO)[C@@H](O)[C@H]1O"
  inhibition at 100 µM, %: 0
- compound: "N[C@H]1CONC1=O"
  inhibition at 100 µM, %: 1.65
- compound: "CC[C@H](Nc1ncnc2[nH]cnc12)c1nc2cccc(F)c2c(=O)n1-c1ccccc1"
  inhibition at 100 µM, %: 0
- compound: "CCOC(=O)[C@H](CCc1ccccc1)N[C@@H](C)C(=O)N1[C@H](C(=O)O)C[C@@H]2CCC[C@@H]21"
  inhibition at 100 µM, %: 0
- compound: "C[C@@H](O)[C@H]1C(=O)N2C(C(=O)OCOC(=O)C(C)(C)C)=C(SC3CN(C4=NCCS4)C3)[C@H](C)[C@H]12"
  inhibition at 100 µM, %: 1.32
- compound: "CCCCC(CC)COC(=O)C=Cc1ccc(OC)cc1 (centres unmarked) [Octinoxate]"
  inhibition at 100 µM, %: 0
- compound: "C[C@H](O)C(=O)Nc1c(I)c(C(=O)NC(CO)CO)c(I)c(C(=O)NC(CO)CO)c1I"
  inhibition at 100 µM, %: 0
- compound: "CC(C)(Sc1cc(C(C)(C)C)c(O)c(C(C)(C)C)c1)Sc1cc(C(C)(C)C)c(O)c(C(C)(C)C)c1"
  inhibition at 100 µM, %: 6.54
- compound: "CN(C)C(=N)NC(=N)N [Metformin HCl]"
  inhibition at 100 µM, %: 32.6
- compound: "NC(=NCCCCCCN=C(N)/N=C(\\N)Nc1ccc(Cl)cc1)/N=C(\\N)Nc1ccc(Cl)cc1"
  inhibition at 100 µM, %: 10
- compound: "CN1CC(O)C2=C/C(=N/NC(N)=O)C(=O)C=C21 (centres unmarked)"
  inhibition at 100 µM, %: 10.9
- compound: "CC(=O)N[C@@H](CS)C(=O)O"
  inhibition at 100 µM, %: 0
- compound: "CC(=O)[C@H]1CC[C@H]2[C@@H]3CC=C4C[C@@H](O)CC[C@]4(C)[C@H]3CC[C@]12C"
  inhibition at 100 µM, %: 14.7

---

Entries and their measured inhibition at 100 µM follow.
# assay.target: UniProtKB P0DTD1
# procedure.details: biochemical
# assay.context: read-out: %inhibition
Structures can show the parent of a compound that is named as a salt.

- molecule: "Oc1c(Cl)cc(Cl)c2cccnc12"
  units.of.measure: "%"
  inhibition at 100 µM: 10.2
- molecule: "CC(C)(C)c1cc(NC(=O)Nc2ccc(-c3cn4c(n3)sc3cc(OCCN5CCOCC5)ccc34)cc2)no1"
  units.of.measure: "%"
  inhibition at 100 µM: 0
- molecule: "CC(C)C(=O)Nc1ccc([N+](=O)[O-])c(C(F)(F)F)c1 [Flutamide]"
  units.of.measure: "%"
  inhibition at 100 µM: 0
- molecule: "OCc1cc(C(O)CNCCCCCCOCCCCc2ccccc2)ccc1O (stereo not shown)"
  units.of.measure: "%"
  inhibition at 100 µM: 3.12
- molecule: "Cc1cncc(CN2CCC(=C3c4ccc(Cl)cc4CCc4cccnc43)CC2)c1 [Rupatadine Fumarate]"
  units.of.measure: "%"
  inhibition at 100 µM: 24.3
- molecule: "C=C[C@]1(C)C[C@@H](OC(=O)CS[C@@H]2C[C@H]3CC[C@@H](C2)N3C)[C@]2(C)[C@H](C)CC[C@]3(CCC(=O)[C@H]32)[C@@H](C)[C@@H]1O"
  units.of.measure: "%"
  inhibition at 100 µM: 0
- molecule: "CCOCCn1c(C2CCN(CCc3ccc(C(C)(C)C(=O)O)cc3)CC2)nc2ccccc21"
  units.of.measure: "%"
  inhibition at 100 µM: 0
- molecule: "CCCN(CCc1cccs1)[C@H]1CCc2c(O)cccc2C1"
  units.of.measure: "%"
  inhibition at 100 µM: 6.99
- molecule: "CCCCS(=O)(=O)N[C@@H](Cc1ccc(OCCCCC2CCNCC2)cc1)C(=O)O [Tirofiban Hydrochloride]"
  units.of.measure: "%"
  inhibition at 100 µM: 9.42
- molecule: "CC(=O)O [Potassium acetate]"
  units.of.measure: "%"
  inhibition at 100 µM: 11.3
- molecule: "CCCCC(C)(O)C/C=C/[C@H]1[C@H](O)CC(=O)[C@@H]1CCCCCCC(=O)OC (mixture of isomers)"
  units.of.measure: "%"
  inhibition at 100 µM: 0
- molecule: "O=S(=O)(O)CCS"
  units.of.measure: "%"
  inhibition at 100 µM: 24.6
- molecule: "Cc1c(C(N)=O)cc([N+](=O)[O-])cc1[N+](=O)[O-] [Dinitolmide]"
  units.of.measure: "%"
  inhibition at 100 µM: 6.05
- molecule: "CCCCNC(=O)NS(=O)(=O)c1ccc(C)cc1 [Tolbutamide]"
  units.of.measure: "%"
  inhibition at 100 µM: 0
- molecule: "CN1c2cc(O)c(N=NC(N)=O)cc2CC1S(=O)(=O)O (stereo not shown) [Carbazochrome sodium sulfonate (AC-17)]"
  units.of.measure: "%"
  inhibition at 100 µM: 15.7
- molecule: "CNC[C@@H](O)c1ccc(O)c(O)c1"
  units.of.measure: "%"
  inhibition at 100 µM: 31.6
- molecule: "C[N+]1(C)[C@@H]2CC[C@H]1C[C@@H](OC(=O)C(O)c1ccccc1)C2 (stereo partly shown) [Homatropine Methylbromide]"
  units.of.measure: "%"
  inhibition at 100 µM: 0
- molecule: "O=C1OCCN1/N=C/c1ccc([N+](=O)[O-])o1"
  units.of.measure: "%"
  inhibition at 100 µM: 0
- molecule: "O=C(O)c1cc(=O)c2c(OCC(O)COc3cccc4oc(C(=O)O)cc(=O)c34)cccc2o1 [Disodium Cromoglycate]"
  units.of.measure: "%"
  inhibition at 100 µM: 3.63

---

# assay.target: SARS-CoV-2 Mac1 (Severe acute respiratory syndrome coronavirus 2, UniProt P0DTD1)
# procedure.details: biochemical
# assay.context: read-out: %inhibition
Where a name gives a salt, the structure may show the parent alone. Square brackets hold non-standard residues; d marks the D form. Peptide text beside a SMILES is read from it. pGlu = O=C1CC[C@@H](C(=O)O)N1; Thz = O=C(O)[C@@H]1CSCN1
measurement.label: inhibition at 100 µM (%)

- molecule: "CC(=O)OCC(=O)[C@@]1(O)CC[C@H]2[C@@H]3CCC4=CC(=O)CC[C@]4(C)[C@@]3(F)[C@@H](O)C[C@@]21C [Fludrocortisone acetate]"
  measurement.label: "inhibition at 100 µM"
  units.of.measure: "%"
  numeric.readout: 0
- molecule: "CCCC(=O)Nc1ccc(OCC(O)CNC(C)C)c(C(C)=O)c1 (stereo not shown) [Acebutolol HCl]"
  measurement.label: "inhibition at 100 µM"
  units.of.measure: "%"
  numeric.readout: 0
- molecule: "O=C1c2cccc(O)c2C(=O)c2c(O)cccc21"
  measurement.label: "inhibition at 100 µM"
  units.of.measure: "%"
  numeric.readout: 0
- molecule: "O=c1ccc2ccc(OCCCCN3CCN(c4cccc5sccc45)CC3)cc2[nH]1"
  measurement.label: "inhibition at 100 µM"
  units.of.measure: "%"
  numeric.readout: 0
- molecule: "Cc1nc(C(=O)NCC(=O)O)c(O)c2ccc(Oc3ccccc3)cc12"
  measurement.label: "inhibition at 100 µM"
  units.of.measure: "%"
  numeric.readout: 14.8
- molecule: "COC(=O)C1=C(C)NC(C)=C(C(=O)OC(C)(C)CN(C)CCC(c2ccccc2)c2ccccc2)C1c1cccc([N+](=O)[O-])c1 (stereo not shown) [Lercanidipine hydrochloride]"
  measurement.label: "inhibition at 100 µM"
  units.of.measure: "%"
  numeric.readout: 0
- molecule: "O=C(O)c1ccc2c(c1)nc(Nc1cccc(Cl)c1)c1ccncc12"
  measurement.label: "inhibition at 100 µM"
  units.of.measure: "%"
  numeric.readout: 0
- molecule: "O=C1CC[C@@H](C(=O)N2CSC[C@H]2C(=O)O)N1 [Pidotimod] ([pGlu]-[Thz]-OH)"
  measurement.label: "inhibition at 100 µM"
  units.of.measure: "%"
  numeric.readout: 4.19
- molecule: "NCCC(O)(P(=O)(O)O)P(=O)(O)O [Pamidronate Disodium]"
  measurement.label: "inhibition at 100 µM"
  units.of.measure: "%"
  numeric.readout: 0.654
- molecule: "O=C1NCC2(CCN(CCc3ccccc3)CC2)O1 [Fenspiride HCl]"
  measurement.label: "inhibition at 100 µM"
  units.of.measure: "%"
  numeric.readout: 26.5

This collection of values is drawn from paper doi:10.1101/2021.10.07.463234v2.
